test-target: Bombesin receptor subtype-3 (Homo sapiens, UniProt P32247)
Sequence (P32247 whole entry): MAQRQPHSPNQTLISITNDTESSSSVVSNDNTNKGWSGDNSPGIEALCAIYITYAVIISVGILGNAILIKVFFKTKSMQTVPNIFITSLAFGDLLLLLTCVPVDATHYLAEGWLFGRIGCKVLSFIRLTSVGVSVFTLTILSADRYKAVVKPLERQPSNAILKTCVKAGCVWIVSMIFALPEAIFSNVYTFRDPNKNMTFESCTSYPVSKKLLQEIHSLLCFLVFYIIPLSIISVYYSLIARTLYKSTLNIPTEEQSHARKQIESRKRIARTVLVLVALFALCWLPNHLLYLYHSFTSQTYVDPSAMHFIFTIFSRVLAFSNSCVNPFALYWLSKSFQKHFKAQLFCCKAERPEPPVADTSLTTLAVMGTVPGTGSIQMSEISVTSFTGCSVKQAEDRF
assay-comment: Binding affinity to human BRS3
observation-type: IC50

Field: example entries. Status: answers known.
molecule=CC(C)(C)NC(=O)NS(=O)(=O)c1cnccc1NN1CCCC1 obs_value="> 10 µM"
molecule="CC(C)(C)CC(=O)NS(=O)(=O)c1cnccc1N[C@@H]1C[C@H]2CC[C@@H]1C2 (racemic)" obs_value="> 10 µM"

Need IC50 of `CC(C)(C)NC(=O)NS(=O)(=O)c1cnccc1N[C@H]1CN2CCC1CC2` , thanks. > 10 µM

---

Each item that follows carries a reported pEC50.
test-target: UniProt O54798
Sequence (O54798 whole entry): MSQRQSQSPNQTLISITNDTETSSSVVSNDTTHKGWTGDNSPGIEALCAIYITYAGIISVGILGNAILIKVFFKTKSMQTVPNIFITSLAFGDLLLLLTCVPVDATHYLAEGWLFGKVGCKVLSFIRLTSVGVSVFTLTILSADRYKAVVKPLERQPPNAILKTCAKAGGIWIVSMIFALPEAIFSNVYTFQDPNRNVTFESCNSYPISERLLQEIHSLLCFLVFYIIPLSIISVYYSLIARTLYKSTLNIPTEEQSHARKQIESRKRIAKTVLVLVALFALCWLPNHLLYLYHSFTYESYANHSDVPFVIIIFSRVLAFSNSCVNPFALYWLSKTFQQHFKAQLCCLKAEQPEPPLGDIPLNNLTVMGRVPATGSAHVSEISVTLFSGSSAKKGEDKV
assay-comment: Agonist activity at mouse BRS3 by functional assay
In simple prose, pEC50 is minus the logarithm base ten of a concentration in moles per litre.

Field: example entries. Status: answers known.
compound="CN(C(=O)NC(C)(C)C)S(=O)(=O)c1cnccc1N[C@@H]1C[C@H]2CC[C@@H]1C2 (racemic)" obs_value=5.19
compound="CC(C)NC(=O)NS(=O)(=O)c1cnccc1N[C@H]1C[C@H]2CC[C@@H]1C2 (racemic)" obs_value=7.01
compound=CC(C)(C)NC(=O)NS(=O)(=O)c1cnccc1O[C@@H]1C[C@@H]2CC[C@H]1C2 obs_value=6.49
compound="CN(C(=O)NS(=O)(=O)c1cnccc1N[C@@H]1C[C@H]2CC[C@@H]1C2)C(C)(C)C (racemic)" obs_value=6.74
compound="CC(C)(C)OC(=O)NS(=O)(=O)c1cnccc1N[C@@H]1C[C@H]2CC[C@@H]1C2 (racemic)" obs_value=6.23
compound=CC(C)(C)NC(=O)NS(=O)(=O)c1cnccc1N[C@H]1C[C@@H]2CC[C@H]1C2 obs_value=6.96

Need pEC50 of `CC(C)(C)NC(=O)NS(=O)(=O)c1cnccc1N[C@@H]1C[C@H]2CC[C@@H]1C2` , thanks. 7.68

What about O=S(=O)(Nc1nc(C2CCC2)n[nH]1)c1cnccc1NC1CC2CCC1C2 (single isomer, unassigned) ? 6.72
